The measured values listed here are drawn from a melting point compilation (Tetko et al.; mined from patent text by program, amines drawn as free bases though some values may be those of a salt).

PARAMETER_MEASURED: melting point

{"COMPOUND": "Cn1c(=O)c(-c2ccc(Cl)cc2Cl)cc2c3cc(-c4c[nH]nn4)ccc3n(C)c21", "PARAMETER_MEASURED": "melting point", "RESULT": "274 to 275 °C"}
{"COMPOUND": "OCC(O)COc1ccccc1OCc1ccccc1 (configuration not stated)", "PARAMETER_MEASURED": "melting point", "RESULT": "81 to 82.5 °C"}
{"COMPOUND": "CCOC(=O)C(C#N)=CNc1nccc2c1CCCC2", "PARAMETER_MEASURED": "melting point", "RESULT": "116 to 120 °C"}
{"COMPOUND": "Cc1cccc(Cc2ccc(-c3cnn4c(O)ncnc34)cc2)c1", "PARAMETER_MEASURED": "melting point", "RESULT": "271 to 278 °C"}
{"COMPOUND": "CNC(=O)CC1CSC2=C(C(=O)OC(C)C)CCN21 (configuration not stated)", "PARAMETER_MEASURED": "melting point", "RESULT": "79 to 95 °C"}
{"COMPOUND": "COC(=O)CCc1ccc(C(=C2CC(C)(C)CC(C)(C)C2)c2ccc(O)cc2)cc1", "PARAMETER_MEASURED": "melting point", "RESULT": "129 to 130 °C"}
{"COMPOUND": "O=C(NCCc1ccccc1)c1ccc(Cl)nc1", "PARAMETER_MEASURED": "melting point", "RESULT": "95 to 96 °C"}
{"COMPOUND": "CN(C)C(=O)c1nc(-c2ccccc2)nc2c1c1cc(Cl)ccc1n2C", "PARAMETER_MEASURED": "melting point", "RESULT": "222 to 224 °C"}
{"COMPOUND": "CCOC(=O)c1cc(F)cnc1NCc1ccc(OC)cc1", "PARAMETER_MEASURED": "melting point", "RESULT": "90 °C"}
{"COMPOUND": "CC(C)c1cnn2c(NCc3ccccc3)nc(Cl)cc12", "PARAMETER_MEASURED": "melting point", "RESULT": "74 to 75 °C"}
{"COMPOUND": "N#CN1CCN(c2n[nH]c3ccccc23)CC1", "PARAMETER_MEASURED": "melting point", "RESULT": "120 to 122 °C"}
{"COMPOUND": "O=C(CI)CCc1ccccc1", "PARAMETER_MEASURED": "melting point", "RESULT": "44 to 45 °C"}
{"COMPOUND": "CC(C)(C)OC(=O)N1CCN(c2ccc(N)cc2C#N)CC1", "PARAMETER_MEASURED": "melting point", "RESULT": "145 °C"}
{"COMPOUND": "CCOC(=O)/C=C/c1cc(-c2ncc(C(F)(F)F)cc2Cl)ccc1Cl", "PARAMETER_MEASURED": "melting point", "RESULT": "118 to 120 °C"}
{"COMPOUND": "Cc1cc(C)nc(-c2cccc(-c3ccccc3)n2)n1", "PARAMETER_MEASURED": "melting point", "RESULT": "117 °C"}
{"COMPOUND": "COc1ccc2c(c1)C13CCN(C)C(C2)C1OCOC3 (configuration not stated)", "PARAMETER_MEASURED": "melting point", "RESULT": "134 to 135 °C"}
{"COMPOUND": "CCOC(=O)CC(NC(=O)c1ccccc1)C(=O)c1ccsc1 (configuration not stated)", "PARAMETER_MEASURED": "melting point", "RESULT": "62 to 63 °C"}
{"COMPOUND": "CCCCC1(CCCC)CS(=O)(=O)c2ccc(N(C)C)cc2C(c2ccc(OCc3ccc(CN(CC(=O)O)CC(=O)O)cc3)cc2)C1O (configuration not stated)", "PARAMETER_MEASURED": "melting point", "RESULT": "175 °C"}
{"COMPOUND": "CC(C)OC(=O)N1CCC(NC(=O)N2CCn3c(c(C(N)=O)c(C#N)c3C3CC3)C2)CC1", "PARAMETER_MEASURED": "melting point", "RESULT": "181 to 182 °C"}
{"COMPOUND": "CONCc1nc2cnc3ccccc3c2n1CC1CCOCC1", "PARAMETER_MEASURED": "melting point", "RESULT": "58 to 63 °C"}
{"COMPOUND": "COc1ccc(S(=O)(=O)c2cc(O)c(O)cc2C)cc1NC(C)=O", "PARAMETER_MEASURED": "melting point", "RESULT": "230 to 232 °C"}
{"COMPOUND": "O=CNC1Cc2cc(Br)cc([N+](=O)[O-])c2NC1=O (configuration not stated)", "PARAMETER_MEASURED": "melting point", "RESULT": "232 to 235 °C"}
